B1: DYRK1B (parent)
chain: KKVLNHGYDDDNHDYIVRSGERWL

Variants of: B1
run-description: protein stability index of a GFP-peptide fusion (GPS, HEK-293T) (PSI 1-6); higher = more stable;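 further: lentivirally expressed fusions sorted by FACS into six bins by GFP to DsRed ratio, PSI derived from sequencing read proportions per bin multiplied by bin number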
condition-details: c terminus: a fixed tail appended
Answer each item with its documented protein stability index.
Numbers only.

mutation_name=V3Y value=2.73

Parameters: items (list). Returns: protein stability index for each item.
1. L4M
2. G20S
3. V17A

A)
1. 2.88
2. 3.01
3. 3.11

Values were extracted from the supplement of paper PMC10567573.
